# Test system: NCI/ADR-RES ovarian
# TEST_NAME: NCI-60 one-dose screen, 48 h (100 = growth as untreated, 0 = no growth, -100 = all killed)
# EXPERIMENTAL_CONTEXT: 10 µM
About 83,000 compounds went through this panel and 20% of them were active in at least one assay; those are over-represented in the sample as a whole.
Mark each entry Met if its growth sits below 90%, and Not met for all others.

Worked set:
COMPOUND | MEASUREMENT_TARGET | LABEL
COc1cc(C2CC(=O)Nc3c2c(C)nn3-c2nc3ccccc3[nH]2)cc(OC)c1O (stereo not given) | NCI/ADR-RES ovarian | Met
CNC(=O)c1cc(Oc2ccc(NC(=O)Nc3ccc(Cl)c(OC(C)C)c3)c(F)c2)ccn1 | NCI/ADR-RES ovarian | Met
COc1ccc(S(=O)(=O)Nc2cc(/C=C\c3cc(OC)c(OC)c(OC)c3)ccc2OC)cc1 | NCI/ADR-RES ovarian | Met

## Task Say whether its growth is strictly beneath 90%. Entry: "CCCCC(CC#N)(CCC)CCC"
## Result Not met

## Task Say whether its growth is strictly beneath 90%. Entry: "C[C@]12CC[C@H]3[C@@H](CCC4=CC(=O)CC[C@@]43C)[C@@H]1CC[C@@H]2c1csc(N)n1"
## Result Met

## Task Say whether its growth is strictly beneath 90%. Entry: "COc1ccc(Nc2nc(NCc3ccccc3)c3ccccc3n2)cc1"
## Result Met

## Task Say whether its growth is strictly beneath 90%. Entry: "O=S(=O)(NCCO)c1ccc(OCCOc2ccc(S(=O)(=O)NCCO)cc2)cc1"
## Result Not met

## Task Say whether its growth is strictly beneath 90%. Entry: "Nc1cc2c(cc1Cl)-c1ccc(Cl)cc1C2=O"
## Result Not met
